Target: T1, CD96 (UniProt P40200)
T1 sequence (looked up): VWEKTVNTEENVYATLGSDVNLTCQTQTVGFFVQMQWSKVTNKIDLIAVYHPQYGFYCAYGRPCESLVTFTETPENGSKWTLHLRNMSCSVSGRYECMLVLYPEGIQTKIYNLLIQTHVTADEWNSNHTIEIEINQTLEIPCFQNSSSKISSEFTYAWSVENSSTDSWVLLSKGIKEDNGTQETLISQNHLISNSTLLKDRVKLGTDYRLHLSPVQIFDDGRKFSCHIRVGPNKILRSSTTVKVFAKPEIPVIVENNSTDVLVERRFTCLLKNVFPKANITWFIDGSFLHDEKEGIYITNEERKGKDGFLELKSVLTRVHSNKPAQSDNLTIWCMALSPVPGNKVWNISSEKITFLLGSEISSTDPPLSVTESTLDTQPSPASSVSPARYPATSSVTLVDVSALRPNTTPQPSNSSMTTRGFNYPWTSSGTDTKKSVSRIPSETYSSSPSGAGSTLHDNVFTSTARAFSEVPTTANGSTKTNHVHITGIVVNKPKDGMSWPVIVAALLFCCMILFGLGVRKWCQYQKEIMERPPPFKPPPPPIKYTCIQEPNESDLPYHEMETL
Assay: flow cytometry, cells expressing target, 25 nM
Endpoint: MFI at 25 nM (MFI)
Provide the reading as a plain figure in MFI.

CD155 variant IgV-Fc P18S, H59R, A76G, R78S, L79P (Fc fusion, not shown: a dimerising Fc or GST; large carriers; small tags and cut ends) PGTGDVVVQAPTQVSGFLGDSVTLPCYLQVPNMEVTHVSQLTWARHGESGSMAVFRQTQGPSYSESKRLEFVGASPGAELRNASLRMFGLRVEDEGNYTCLFVTFPQGSRSVDIWL: 44500
CD155 variant IgV-Fc P18T, D23G, Q60R, S67L, L79P, F91S, T107M, V115A (Fc fusion, not shown: a dimerising Fc or GST; small tags and cut ends) PGTGDVVVQAPTQVTGFLGGSVTLPCYLQVPNMEVTHVSQLTWARHGESGSMAVFHRTQGPSYLESKRLEFVAARPGAELRNASLRMSGLRVEDEGNYTCLFVMFPQGSRSADIWL: 109000
CD155 variant IgV-Fc V9L, P18F, T45A, S65A, S67V, R78K, L79V, F91S, T107M, S114T (Fc fusion, not shown: a dimerising Fc or GST; small tags and cut ends) PGTGDLVVQAPTQVFGFLGDSVTLPCYLQVPNMEVTHVSQLAWARHGESGSMAVFHQTQGPAYVESKRLEFVAAKVGAELRNASLRMSGLRVEDEGNYTCLFVMFPQGSRTVDIWL: 85600

Now look at this entry.
Using the record for CD155 variant IgV-Fc P18T, S52A, V57A, Q60R, Q62K, S65C, L79P, F91T, N100Y, T107M (Fc fusion, not shown: a dimerising Fc or GST; large carriers; small tags and cut ends) PGTGDVVVQAPTQVTGFLGDSVTLPCYLQVPNMEVTHVSQLTWARHGEAGSMAAFHRTKGPCYSESKRLEFVAARPGAELRNASLRMTGLRVEDEGYYTCLFVMFPQGSRSVDIWL , report its MFI at 25 nM. 3790
